test: Biodistribution in AR42J tumor-bearing nude mice; conditions: mouse, kidney, intravenous, Biodistribution Kidney, Competition, 60 min p.i., coinjection of 20 μg/mouse unlabeled TOC, n = 3
quantity measured: tissue uptake at 1 h (%ID/g)
Write it as a number; the unit %ID/g goes unstated.

// tissue uptake at 1 h lookup, key: C[C@@H](O)[C@H](NC(=O)[C@@H]1CSSC[C@H](NC(=O)[C@@H](Cc2ccccc2)NC(=O)CN2CCN(CC(=O)O)CCN(CC(=O)O)CCN(CC(=O)O)CC2)C(=O)N[C@@H](Cc2ccc(O)c(I)c2)C(=O)N[C@H](Cc2c[nH]c3ccccc23)C(=O)N[C@@H](CCCCN)C(=O)N[C@@H]([C@@H](C)O)C(=O)N1)C(=O)O [[^68Ga]HA-DOTATATE, [^68Ga]DOTA-3-iodo-Tyr^3-octreotate, metal not drawn]
17.1
